Measured values drawn from paper PMC5770965 for this set.

Could you please report measured pKd for the items listed next?
target: KIX domain of CBP (UniProt P45481 586-665); experiment: stopped-flow fluorescence (association kinetics) + dissociation kinetics by competition; KdKin calculated as kdiss/kass,fast; conditions: both partners purified
Sequence (P45481 586-665): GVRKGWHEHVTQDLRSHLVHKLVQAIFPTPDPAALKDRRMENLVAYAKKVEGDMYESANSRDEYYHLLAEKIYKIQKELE
Non-standard residues stand in square brackets, D forms with d. No end group written: not given here. *: point of attachment. FITC = O=C1OC2(c3ccc(O)cc3Oc3cc(O)ccc32)c2ccc(NC(=S)*)cc21; pS = N[C@@H](COP(=O)(O)O)C(=O)O
Numbers only, as −log10 of the molar value.

Take a look at these entries with their results.
{FITC}-DSVTDSQKRREILSRRP[pS]YGKILNDLSSDAP (peptide, UniProt P15337-1 116-146, looked up, also called A135G; source: synthetic peptide, bought: Biomatik) [FITC-pKID R135G]	5.90
{FITC}-DSVTDSQKRREILSRRP[pS]YRKILNDLSADAP (peptide, UniProt P15337-1 116-146, looked up, source: synthetic peptide, bought: Biomatik) [FITC-pKID S143A]	7.15

Provide reported pKd for each item, in the same order as listed.
1. {FITC}-DSVTDSQKRREILSRRP[pS]YRAILNDLSSDAP (peptide, UniProt P15337-1 116-146, looked up, source: synthetic peptide, bought: Biomatik) [FITC-pKID K136A]
2. {FITC}-DSVTDSQKRREILSRRP[pS]YAKILNDLSSDAP (peptide, UniProt P15337-1 116-146, looked up, source: synthetic peptide, bought: Biomatik) [FITC-pKID R135A]
3. {FITC}-DSVTDSQKRREILSRRP[pS]YRKILNDLSGDAP (peptide, UniProt P15337-1 116-146, looked up, the text prints S143G; also called A143G; source: synthetic peptide, bought: Biomatik) [FITC-pKID S143G]
4. {FITC}-DSVGDSQKRREILSRRP[pS]YRKILNDLSSDAP (peptide, UniProt P15337-1 116-146, looked up, the peptide has Gly in place of the natural Thr119; also called A119G; source: synthetic peptide, bought: Biomatik) [FITC-pKID T119G]
5. {FITC}-DSVTDSQKRREILSRRG[pS]YRKILNDLSSDAP (peptide, UniProt P15337-1 116-146, looked up, also called A132G; source: synthetic peptide, bought: Biomatik) [FITC-pKID P132G]

Given back:
1: 7.05; 2: 6.62; 3: 6.72; 4: 7.05; 5: 6.41

Required: pKd, one value per binder below.
1. {FITC}-DSVTDSQKRREILSRRA[pS]YRKILNDLSSDAP (peptide, UniProt P15337-1 116-146, looked up, source: synthetic peptide, bought: Biomatik) [FITC-pKID P132A]
2. {FITC}-DSVTDSQKRRAILSRRP[pS]YRKILNDLSSDAP (peptide, UniProt P15337-1 116-146, looked up, source: synthetic peptide, bought: Biomatik) [FITC-pKID E126A]
3. {FITC}-DSVADSQKRREILSRRP[pS]YRKILNDLSSDAP (peptide, UniProt P15337-1 116-146, looked up, source: synthetic peptide, bought: Biomatik) [FITC-pKID T119A]
4. {FITC}-DSVTDSQKRREILSRRP[pS]YRGILNDLSSDAP (peptide, UniProt P15337-1 116-146, looked up, also called A136G; source: synthetic peptide, bought: Biomatik) [FITC-pKID K136G]
5. {FITC}-DSVTDSQKRRGILSRRP[pS]YRKILNDLSSDAP (peptide, UniProt P15337-1 116-146, looked up, also called A126G; source: synthetic peptide, bought: Biomatik) [FITC-pKID E126G]

Given back:
[6.89, 7.05, 6.92, 5.90, 6.55]
